The measurements presented in this section are drawn from ChEMBL document CHEMBL6182949.

Assay: Metabolic stability in mouse liver microsome assessed as half life at 1 uM measured up to 60 mins in presence of NADPH by LC-MS/MS analysis
Assay type: ADME
Details: liver microsomes
PARAMETER: half-life at 1 µM (h)

Solved entries:
Cn1c(=O)n(C2CCC(=O)NC2=O)c2cccc(C#CCO[C@H]3CC[C@H](CN4CCC5(CC4)Cc4cc(NC(=O)c6cnn7cc(Cl)cnc67)c(N6CCC(CO)CC6)cc4O5)CC3)c21 (some centres undefined)
1.3
Cc1cc(-c2nc(C(=O)Nc3cc4c(cc3N3CCC(CO)CC3)OC3(CCN(C[C@H]5CC[C@H](OCC#Cc6cccc7c6n(C)c(=O)n7C6CCC(=O)NC6=O)CC5)CC3)C4)co2)ccn1 (some centres undefined)
1.68
Cn1c(=O)n(C2CCC(=O)NC2=O)c2cccc(C#CCO[C@H]3CC[C@@H](CN4CCC5(CC4)Cc4cc(NC(=O)c6coc7cccnc67)c(N6CCC(CO)CC6)cc4O5)CC3)c21 (some centres undefined)
2.05
Cn1c(=O)n(C2CCC(=O)NC2=O)c2cccc(C#CCOC3CCN(CC(=O)N4CCC5(CC4)Cc4cc(NC(=O)c6cnn7cccnc67)c(N6CCC(CO)CC6)cc4O5)CC3)c21 (centres undefined)
1.67
Cn1c(=O)n(C2CCC(=O)NC2=O)c2cccc(C#CCO[C@H]3CC[C@@H](CN4CCC5(CC4)Cc4cc(NC(=O)c6cnn7cccnc67)c(N6CCC(CO)CC6)cc4O5)CC3)c21 (some centres undefined)
1.98

I: Cn1c(=O)n(C2CCC(=O)NC2=O)c2cccc(C#CCO[C@H]3CC[C@H](CN4CCC5(CC4)Cc4cc(NC(=O)c6cnn7cc(CO)cnc67)c(N6CCC(CO)CC6)cc4O5)CC3)c21 (some centres undefined)
II: Cn1c(=O)n(C2CCC(=O)NC2=O)c2cccc(C#CCO[C@H]3CC[C@@](F)(CN4CCC5(CC4)Cc4cc(NC(=O)c6cnn7cccnc67)c(N6CCC(CO)CC6)cc4O5)CC3)c21 (some centres undefined)
III: Cn1c(=O)n(C2CCC(=O)NC2=O)c2cccc(C#CCO[C@H]3CC[C@@H](CN4CCC5(Cc6cc(NC(=O)c7cnn8cccnc78)c(N7CCC(CO)CC7)cc6O5)C4)CC3)c21 (some centres undefined)
IV: Cn1c(=O)n(C2CCC(=O)NC2=O)c2cccc(C#CCO[C@H]3CC[C@H](CN4CCC5(CC4)Cc4cc(NC(=O)c6cnn7cc(C#N)cnc67)c(N6CCC(CO)CC6)cc4O5)CC3)c21 (some centres undefined)
Ranking field: half-life at 1 µM; order: falling. Dear reader, please state the labels in the requested order.
IV, I, III, II

* * *

Experiment: Metabolic stability in human liver microsome assessed as half life at 1 uM measured up to 60 mins in presence of NADPH by LC-MS/MS analysis
Assay type: ADME
Conditions: liver microsomes
PARAMETER: half-life at 1 µM

A selection of reference data follows.
Cn1c(=O)n(C2CCC(=O)NC2=O)c2cccc(C#CCO[C@H]3CC[C@H](CN4CCC5(CC4)Cc4cc(NC(=O)c6cnn7cc(F)cnc67)c(N6CCC(CO)CC6)cc4O5)CC3)c21 (stereo partly specified)
> 3.07 h
Cc1cnc2c(C(=O)Nc3cc4c(cc3N3CCC(CO)CC3)OC3(CCN(C[C@H]5CC[C@H](OCC#Cc6cccc7c6n(C)c(=O)n7C6CCC(=O)NC6=O)CC5)CC3)C4)cnn2c1 (stereo partly specified)
> 3.07 h
Cn1c(=O)n(C2CCC(=O)NC2=O)c2cccc(CN3CCC(CCN4CCC5(CC4)Cc4cc(NC(=O)c6cnn7cccnc67)c(N6CCC(CO)CC6)cc4O5)CC3)c21 (stereo unspecified)
0.733 h
Cn1c(=O)n(C2CCC(=O)NC2=O)c2cccc(C#CCO[C@H]3CC[C@](F)(CN4CCC5(CC4)Cc4cc(NC(=O)c6cnn7cccnc67)c(N6CCC(CO)CC6)cc4O5)CC3)c21 (stereo partly specified)
> 3.07 h
Cn1c(=O)n(C2CCC(=O)NC2=O)c2cccc(C#CCO[C@H]3CC[C@@H](CN4CCC5(CC4)Cc4cc(NC(=O)c6coc7cccnc67)c(N6CCC(CO)CC6)cc4O5)CC3)c21 (stereo partly specified)
0.333 h

Look at this molecule and give its reported half-life at 1 µM. Cn1c(=O)n(C2CCC(=O)NC2=O)c2cccc(C#CCO[C@H]3CC[C@H](CN4CCC5(CC4)Cc4cc(NC(=O)c6coc7cccnc67)c(N6CCC(CO)CC6)cc4O5)CC3)c21 (stereo partly specified)
> 3.07 h

Same read-out for Cn1c(=O)n(C2CCC(=O)NC2=O)c2cccc(C#CCO[C@H]3CC[C@H](CN4CCC5(CC4)Cc4cc(NC(=O)c6cnn7cc(CO)cnc67)c(N6CCC(CO)CC6)cc4O5)CC3)c21 (stereo partly specified) ?
> 3.07 h

Now give it for Cn1c(=O)n(C2CCC(=O)NC2=O)c2cccc(C#CCO[C@H]3CC[C@@](F)(CN4CCC5(CC4)Cc4cc(NC(=O)c6cnn7cccnc67)c(N6CCC(CO)CC6)cc4O5)CC3)c21 (stereo partly specified) too.
0.117 h

Try this molecule next: Cn1c(=O)n(C2CCC(=O)NC2=O)c2cccc(C#CCO[C@H]3CC[C@H](CN4CCC5(CC4)Cc4cc(NC(=O)c6cnn7cccnc67)c(N6CCC(C(=O)O)CC6)cc4O5)CC3)c21 (stereo partly specified)
> 3.07 h

Cn1c(=O)n(C2CCC(=O)NC2=O)c2cccc(C#CCO[C@H]3CC[C@H](CN4CCC5(CC4)Cc4cc(NC(=O)c6cnn7cccnc67)c(N6CCC(CO)CC6)cc4O5)CC3)c21 (stereo partly specified) , same question.
> 3.07 h

Now the same for Cn1c(=O)n(C2CCC(=O)NC2=O)c2cccc(C#CCO[C@H]3CC[C@H](CN4CCC5(CC4)Cc4cc(NC(=O)c6cnn7cc(C#N)cnc67)c(N6CCC(CO)CC6)cc4O5)CC3)c21 (stereo partly specified)
> 3.07 h
